assay: Measurement of 1-octanol/water partition coefficient (shake flask method); format: physicochemical; details: 1-octanol/water; shake flask method JIS Z7260-107, 25° C.; log P as common logarithm; read-out: 1-octanol/water partition coefficient
Give logP for every item shown.
// keep it numeric: no unit symbol after the value

Query: Which logP value is on record for CCOCCOCCO ?
Result: -0.31

Query: Which logP value is on record for CC(C)OCCOCCO ?
Result: 0.04

---

Give logP for every item shown.
assay: Measurement of 1-octanol/water partition coefficient (shake flask method); type: physicochemical; details: shake flask method JIS Z7260-107, 25° C.; log P as common logarithm; read-out: 1-octanol/water partition coefficient
// keep it numeric: no unit symbol after the value

Query: Which logP value is on record for OCCOCCO ?
Result: -1.39

Query: Which logP value is on record for COCCOCCO ?
Result: -0.85

---

Give logP for every item shown.
test: Measurement of 1-octanol/water partition coefficient (shake flask method); assay type: physicochemical
// keep it numeric: no unit symbol after the value

Query: Which logP value is on record for OCCOCCOCCO ?
Result: -1.45

Query: Which logP value is on record for O=C1CCCN1 ?
Result: -0.63

Query: Which logP value is on record for CC(O)CO (stereo not shown) ?
Result: -0.95

Query: Which logP value is on record for OCC(O)CO ?
Result: -1.5
